Values from paper PMC8459745

- target or test system: focal adhesion kinase (FAK) (Homo sapiens, UniProt Q05397)
- Sequence (Q05397 2-1052): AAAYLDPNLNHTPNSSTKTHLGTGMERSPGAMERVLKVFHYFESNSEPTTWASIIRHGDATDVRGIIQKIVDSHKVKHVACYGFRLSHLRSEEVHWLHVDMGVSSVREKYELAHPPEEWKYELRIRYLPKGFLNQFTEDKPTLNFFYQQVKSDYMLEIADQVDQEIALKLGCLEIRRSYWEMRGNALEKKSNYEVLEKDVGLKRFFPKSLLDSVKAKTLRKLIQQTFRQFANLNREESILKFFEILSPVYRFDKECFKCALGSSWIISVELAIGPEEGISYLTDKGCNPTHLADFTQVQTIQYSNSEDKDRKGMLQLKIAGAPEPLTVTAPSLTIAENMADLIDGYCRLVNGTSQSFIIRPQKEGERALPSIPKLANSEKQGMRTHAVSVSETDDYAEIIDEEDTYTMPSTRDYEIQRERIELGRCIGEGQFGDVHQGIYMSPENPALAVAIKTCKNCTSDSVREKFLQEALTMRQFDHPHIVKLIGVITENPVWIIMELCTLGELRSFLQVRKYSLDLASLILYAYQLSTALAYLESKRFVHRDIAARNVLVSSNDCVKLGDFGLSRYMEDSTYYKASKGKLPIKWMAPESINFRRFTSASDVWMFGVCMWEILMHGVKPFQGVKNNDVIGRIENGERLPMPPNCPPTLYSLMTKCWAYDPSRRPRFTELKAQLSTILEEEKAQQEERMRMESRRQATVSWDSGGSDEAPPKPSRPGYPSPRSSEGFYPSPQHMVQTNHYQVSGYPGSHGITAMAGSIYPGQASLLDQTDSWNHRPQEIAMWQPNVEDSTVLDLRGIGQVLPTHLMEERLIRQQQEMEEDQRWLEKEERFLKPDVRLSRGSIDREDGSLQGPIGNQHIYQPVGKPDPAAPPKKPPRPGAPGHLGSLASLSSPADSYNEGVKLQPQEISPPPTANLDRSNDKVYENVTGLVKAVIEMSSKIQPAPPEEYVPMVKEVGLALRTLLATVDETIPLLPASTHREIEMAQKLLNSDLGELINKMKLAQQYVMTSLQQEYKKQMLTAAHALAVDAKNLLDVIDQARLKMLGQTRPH
measurement type: IC50
Put your answer as a value accompanied by its unit after it.

Fill in the blank: the reported IC50 of CONC(=O)c1ccccc1Nc1cc(Nc2cc(C)nn2C(C)C)ncc1Cl is ____. 22.1 nM
